# Tested on: Ded1 wild-type (Saccharomyces cerevisiae, UniProt P06634 1-604)
# Sequence (P06634 whole entry): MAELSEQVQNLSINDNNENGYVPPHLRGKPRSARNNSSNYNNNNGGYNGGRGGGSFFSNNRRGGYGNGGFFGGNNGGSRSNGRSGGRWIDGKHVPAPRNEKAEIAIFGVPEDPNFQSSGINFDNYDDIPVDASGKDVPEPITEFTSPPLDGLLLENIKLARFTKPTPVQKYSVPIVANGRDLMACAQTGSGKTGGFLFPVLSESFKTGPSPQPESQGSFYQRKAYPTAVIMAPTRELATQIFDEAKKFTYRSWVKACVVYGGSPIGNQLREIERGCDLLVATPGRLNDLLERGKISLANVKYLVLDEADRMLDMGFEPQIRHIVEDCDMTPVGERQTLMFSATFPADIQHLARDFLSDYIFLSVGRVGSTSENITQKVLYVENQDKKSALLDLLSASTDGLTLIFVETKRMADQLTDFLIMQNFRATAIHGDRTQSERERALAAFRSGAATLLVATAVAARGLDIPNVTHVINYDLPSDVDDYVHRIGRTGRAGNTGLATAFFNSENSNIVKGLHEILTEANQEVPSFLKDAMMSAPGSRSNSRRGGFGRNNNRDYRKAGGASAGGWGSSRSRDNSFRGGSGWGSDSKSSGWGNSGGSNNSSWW
# Test method notes: fluorescence anisotropy; 2 mM ADP-BeFx; 20 mM HEPES pH 7.5, 40 mM NaCl, 20% glycerol, 2 mM ADP-BeFx; 2 nM RNA, 0-400 nM protein, 30 min; temperature not stated
# Particulars: protein: recombinant; tags: His (pET28a); label: 5' 6-carboxyfluorescein; single strand
Assay endpoint: pKd
Numbers only, as −log10 of the molar value.

Challenge: Quick one: give measured pKd for AGCACCGUAAAGACGC (ssRNA) [16-mer RNA oligomer]
Response given: 7.89

All figures here come from paper PMC7949108.
